Values were extracted from paper PMC11530593.

- ASSAY_SYSTEM: HCN1 mutant F143A (Homo sapiens, UniProt O60741, F143A)
- Construct: Full-length WT or mutant human HCN1 were cloned into the pcDNA3.1 vector
- Sequence (O60741 whole entry F143A): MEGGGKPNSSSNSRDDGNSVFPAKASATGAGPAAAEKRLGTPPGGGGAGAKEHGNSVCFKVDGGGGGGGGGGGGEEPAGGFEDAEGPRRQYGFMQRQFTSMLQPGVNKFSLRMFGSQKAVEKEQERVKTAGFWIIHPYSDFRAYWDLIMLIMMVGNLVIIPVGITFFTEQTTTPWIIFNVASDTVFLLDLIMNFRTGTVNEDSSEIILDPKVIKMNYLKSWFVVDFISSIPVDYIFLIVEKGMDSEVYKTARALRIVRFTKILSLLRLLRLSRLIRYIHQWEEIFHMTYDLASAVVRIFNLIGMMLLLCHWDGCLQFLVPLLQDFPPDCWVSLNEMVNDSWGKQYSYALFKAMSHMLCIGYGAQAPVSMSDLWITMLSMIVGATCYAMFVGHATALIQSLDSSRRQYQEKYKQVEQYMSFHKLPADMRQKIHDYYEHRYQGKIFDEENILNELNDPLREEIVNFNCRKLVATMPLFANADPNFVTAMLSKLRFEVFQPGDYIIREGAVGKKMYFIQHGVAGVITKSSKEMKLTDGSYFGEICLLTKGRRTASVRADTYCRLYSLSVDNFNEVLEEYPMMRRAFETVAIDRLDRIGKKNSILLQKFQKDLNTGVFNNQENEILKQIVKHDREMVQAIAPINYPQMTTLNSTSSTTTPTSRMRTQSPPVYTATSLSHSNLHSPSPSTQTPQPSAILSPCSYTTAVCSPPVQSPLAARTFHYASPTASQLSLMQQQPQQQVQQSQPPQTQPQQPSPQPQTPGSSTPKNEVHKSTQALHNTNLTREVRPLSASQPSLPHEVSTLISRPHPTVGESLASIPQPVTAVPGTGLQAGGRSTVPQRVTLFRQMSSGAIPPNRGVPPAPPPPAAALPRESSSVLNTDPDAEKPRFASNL
- ASSAY_REMARKS: Whole-cell patch-clamp, Ih inhibition, HCN1 mutant
- PROTOCOL_CONDITIONS: F143A mutant, electrophysiological recordings; read-out: IC50 (Fig. 2F)
METRIC_NAME: IC50
The answer consists of two parts: a number and, after it, its unit.

Sure, the documented IC50 for COc1cc2c(cc1OC)CC(=O)N(CCCN(C)C[C@H]1Cc3cc(OC)c(OC)cc31)CC2 [ivabradine] is 32.9 µM
